- TARGET_OR_SYSTEM: Solute carrier family 2, facilitated glucose transporter member 1 (Homo sapiens)
- ASSAY_COMMENT: ST_JUDE_LEISH: Cytotoxicity at 2uM final concentration against transgenic Leishmania Mexicana promastigotes LmGLUT1 that are glucose transport deficient and complemented with the human glucose transporter GLUT1. Activity is measured by DNA content using SYBR green in vitro
- Type: functional
MEASUREMENT_TYPE: inhibition (%)
Entry rule: numbers only, all in %.

Record O=C(NCc1cccc(F)c1)Nc1cccc(-c2cccc(-c3nc4cc(C(F)(F)F)ccc4[nH]3)c2)c1 has Solute carrier family 2, facilitated glucose transporter member 1 (Homo sapiens) inhibition equal to 0.12

Record O=S(=O)(c1ccccc1OC(F)(F)F)C1CC2CCC(C1)N2S(=O)(=O)c1cccc(C(F)(F)F)c1 (centres undefined) has Solute carrier family 2, facilitated glucose transporter member 1 (Homo sapiens) inhibition equal to 0.7

Record COc1ccc(NC(=O)c2cccc(Br)c2)cc1N1CCN(CCCCCCCN2CCN(c3cc(NC(=O)c4cccc(Br)c4)ccc3OC)CC2)CC1 has Solute carrier family 2, facilitated glucose transporter member 1 (Homo sapiens) inhibition equal to 3.47

Record O=C(Nc1ccc(CCNCc2ccccc2)cc1)Nc1ccc(OC(F)(F)F)cc1 has Solute carrier family 2, facilitated glucose transporter member 1 (Homo sapiens) inhibition equal to -1.69

Record COc1ccc2nccc([C@@H](O)CN3CCC(NCc4cc5cccc(OC)c5o4)CC3)c2c1 has Solute carrier family 2, facilitated glucose transporter member 1 (Homo sapiens) inhibition equal to 1.32

Record CCCCCn1c(Sc2ccc(C#N)c([N+](=O)[O-])c2)nnc1-c1ccccc1 has Solute carrier family 2, facilitated glucose transporter member 1 (Homo sapiens) inhibition equal to 8.41

Record CC[C@H](C)CNC(=O)c1ccnc(-c2cccc(CN(C)C3CCN(C)CC3)c2)c1 has Solute carrier family 2, facilitated glucose transporter member 1 (Homo sapiens) inhibition equal to 1.42

Record CCc1c(CCNCCCCCCNCCc2ccc(OC)c(OC)c2C)ccc(OC)c1OC has Solute carrier family 2, facilitated glucose transporter member 1 (Homo sapiens) inhibition equal to 10.2

Record Cc1ccccc1C1CCN(C2CCC(NC(=O)/C=C/c3ccc(F)cc3)CC2)CC1 (centres undefined) has Solute carrier family 2, facilitated glucose transporter member 1 (Homo sapiens) inhibition equal to -1.42
